Entry source: patent US12065416B2

molecular target: recombinant cGAS (aa147-522) (Homo sapiens, UniProt Q8N884); construct: recombinant cGAS (aa147-522); His6-SUMO (N, cleaved yes); test: In vitro assay for inhibition of cGAS activity (ATP consumption, Kinase Glo); settings: 37° C. 20 minutes, read-out: Activity (Inhibition of cGAS enzyme activity in vitro, IC50)
Sequence (Q8N884 147-522): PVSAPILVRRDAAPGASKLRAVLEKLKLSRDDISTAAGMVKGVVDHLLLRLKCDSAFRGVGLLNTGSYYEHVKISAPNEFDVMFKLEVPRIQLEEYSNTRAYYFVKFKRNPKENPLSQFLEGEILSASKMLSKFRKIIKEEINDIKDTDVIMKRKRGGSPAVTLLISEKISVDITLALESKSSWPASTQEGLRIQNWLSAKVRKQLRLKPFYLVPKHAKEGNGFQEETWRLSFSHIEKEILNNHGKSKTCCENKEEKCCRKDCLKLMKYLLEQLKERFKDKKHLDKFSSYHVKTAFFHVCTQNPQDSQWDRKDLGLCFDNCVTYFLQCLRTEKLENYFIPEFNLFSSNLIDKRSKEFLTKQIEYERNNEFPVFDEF
Task for the reader: assign each of the following molecules its reported IC50.

[in] Give recorded IC50 with recombinant cGAS (aa147-522) (Homo sapiens, UniProt Q8N884) for the following molecule: Cc1ncc(COc2cc(/C=C3\Sc4ncccc4C3=O)c(Br)c(F)c2O)cn1
[out] ≤ 500 nM

[in] Reported IC50 for recombinant cGAS (aa147-522) (Homo sapiens, UniProt Q8N884), given Cc1nc(N)ncc1COc1cc(/C=C2\Sc3ncccc3C2=O)c(Br)cc1O ?
[out] ≤ 500 nM

[in] Request body: readout IC50, system recombinant cGAS (aa147-522) (Homo sapiens, UniProt Q8N884), query CNc1ncc(COc2cc(/C=C3\SC(=O)N(C)C3=O)c(Br)c(F)c2O)cn1 . Return the value.
[out] ≤ 500 nM

[in] Lab request: please report IC50 under test system recombinant cGAS (aa147-522) (Homo sapiens, UniProt Q8N884) for O=C1NC(=O)/C(=C/c2cncnc2)S1
[out] ≥ 10000 nM

[in] Form field: IC50 recorded for CN1C(=O)S/C(=C\c2cc(OCCc3cnc(N)nc3N)c(O)c(F)c2Br)C1=O with recombinant cGAS (aa147-522) (Homo sapiens, UniProt Q8N884) (enter value)
[out] ≤ 500 nM

[in] Give recorded IC50 with recombinant cGAS (aa147-522) (Homo sapiens, UniProt Q8N884) for the following molecule: COc1cc(/C=c2\sc3n(c2=O)CCN=3)c(Br)cc1O
[out] 500 to 10000 nM

[in] Please tell me: IC50 of CN1C(=O)S/C(=C\c2cc(Oc3cccc4ncccc34)c(O)cc2Br)C1=O , system recombinant cGAS (aa147-522) (Homo sapiens, UniProt Q8N884)?
[out] ≥ 10000 nM

[in] Could you share what IC50 was measured for COc1cc(/C=C2\SC(=O)N(C)C2=O)c(Br)cc1Oc1nncs1 , tested on recombinant cGAS (aa147-522) (Homo sapiens, UniProt Q8N884)?
[out] 500 to 10000 nM

[in] Which measured IC50 belongs to COCCNc1ncc(COc2cc(/C=C3\Sc4ncccc4C3=O)c(Br)cc2O)cn1 , tested on recombinant cGAS (aa147-522) (Homo sapiens, UniProt Q8N884)?
[out] ≤ 500 nM

[in] Recorded IC50 for C/C(=C1/SC(=O)NC1=O)c1ccncc1 with recombinant cGAS (aa147-522) (Homo sapiens, UniProt Q8N884), please?
[out] ≤ 500 nM

[in] Lab note: need IC50 with recombinant cGAS (aa147-522) (Homo sapiens, UniProt Q8N884) for entry CC(Oc1cc(/C=C2\SC(=O)N(C)C2=O)c(Br)c(F)c1O)c1cncnc1 (stereo not shown) , please look it up.
[out] 500 to 10000 nM

[in] Give recombinant cGAS (aa147-522) (Homo sapiens, UniProt Q8N884) IC50 for CCN1C(=O)S/C(=C\c2cc(OC)c(O)cc2Br)C1=O
[out] 500 to 10000 nM

[in] Item CN1C(=O)S/C(=C\c2cc(O)c(O)cc2F)C1=O with recombinant cGAS (aa147-522) (Homo sapiens, UniProt Q8N884) - IC50?
[out] ≥ 10000 nM

[in] Hello, I am looking for reported IC50 with recombinant cGAS (aa147-522) (Homo sapiens, UniProt Q8N884) for CC(Oc1cc(/C=C2\Sc3ncccc3C2=O)c(Br)cc1O)c1cnc(NCCO)nc1 (stereo not shown) . Could you help?
[out] ≤ 500 nM

[in] Checklist item: IC50 tested on recombinant cGAS (aa147-522) (Homo sapiens, UniProt Q8N884), entry Cc1ncc(COc2cc(/C=C3\SC(=O)N(C)C3=O)c(Br)cc2O)cn1 [Ex142] , value?
[out] ≤ 500 nM

[in] IC50 of CN1C(=O)S/C(=C\c2cc(OCc3cnc(NN)nc3)c(O)cc2Br)C1=O on recombinant cGAS (aa147-522) (Homo sapiens, UniProt Q8N884)?
[out] ≤ 500 nM

[in] Short answer please: IC50, recombinant cGAS (aa147-522) (Homo sapiens, UniProt Q8N884), entry Nc1ncc(COc2cc(/C=C3\Sc4ncccc4C3=O)c(Br)cc2O)c(C2CC2)n1
[out] ≤ 500 nM

[in] Give the reported IC50 for CNc1ncc(C(C)Oc2cc(/C=C3\SC(=O)N(C)C3=O)c(Br)c(F)c2O)cn1 (stereo not shown) (system: recombinant cGAS (aa147-522) (Homo sapiens, UniProt Q8N884)).
[out] 500 to 10000 nM

[in] What is its IC50 for recombinant cGAS (aa147-522) (Homo sapiens, UniProt Q8N884)? Entry: CN1C(=O)S/C(=C\c2cc(OCc3cnc([S+](C)[O-])nc3N)c(O)c(F)c2Br)C1=O (stereo not shown)
[out] ≤ 500 nM

[in] Missing value: IC50, recombinant cGAS (aa147-522) (Homo sapiens, UniProt Q8N884), entry CN1C(=O)S/C(=C\c2cc(OCC(F)(F)c3cnc(N)nc3)c(O)c(F)c2Br)C1=O . Fill in?
[out] 500 to 10000 nM

[in] Report IC50 for Nc1ncc(/C=C/c2cc(/C=C3\Sc4ncccc4C3=O)c(Br)cc2O)cn1 tested on recombinant cGAS (aa147-522) (Homo sapiens, UniProt Q8N884).
[out] ≤ 500 nM

[in] Record CN1C(=O)S/C(=C\c2cc(OCc3cnc(NCc4cccnc4)nc3)c(O)c(F)c2Br)C1=O : what is its IC50 with recombinant cGAS (aa147-522) (Homo sapiens, UniProt Q8N884)?
[out] 500 to 10000 nM

[in] What value of IC50 on recombinant cGAS (aa147-522) (Homo sapiens, UniProt Q8N884) does CN1C(=O)S/C(=C\c2cc(CCc3ccc([S+](C)[O-])cc3)c(O)cc2Br)C1=O (stereo not shown) have?
[out] ≥ 10000 nM

[in] Which IC50 is reported with recombinant cGAS (aa147-522) (Homo sapiens, UniProt Q8N884) for this entry: CN1C(=O)S/C(=C\c2cc(OCCc3cnc(N)nc3)c(O)c(F)c2Br)C1=O ?
[out] ≤ 500 nM

[in] Lab request: please report IC50 under test system recombinant cGAS (aa147-522) (Homo sapiens, UniProt Q8N884) for CCOc1cc(/C=C2\SC(=O)N(C)C2=O)c(Br)cc1O
[out] ≤ 500 nM

[in] Could you share what IC50 was measured for CN1C(=O)S/C(=C\c2cc(OCc3cnc(N)nc3)c(Oc3cnc(N)s3)cc2Br)C1=O , tested on recombinant cGAS (aa147-522) (Homo sapiens, UniProt Q8N884)?
[out] 500 to 10000 nM

[in] Can you look up IC50 on recombinant cGAS (aa147-522) (Homo sapiens, UniProt Q8N884) for O=C1/C(=C/c2cc(OCc3cnc(NCc4cccnc4)nc3)c(O)c(F)c2Br)Sc2ncccc21 ?
[out] ≤ 500 nM

[in] Given the entry COc1cc(/C=C2\SC(=O)N(C)C2=O)c(C(F)(F)F)cc1O , what IC50 was observed with recombinant cGAS (aa147-522) (Homo sapiens, UniProt Q8N884)?
[out] 500 to 10000 nM

[in] Query the reported IC50 for recombinant cGAS (aa147-522) (Homo sapiens, UniProt Q8N884); item: CN1C(=O)S/C(=C\c2cc(OCc3cnc(NC(=O)c4ccncc4)nc3)c(O)cc2Br)C1=O
[out] ≤ 500 nM

[in] IC50 of CCc1cc(/C=C2\Sc3ncccc3C2=O)c(Br)cc1O on recombinant cGAS (aa147-522) (Homo sapiens, UniProt Q8N884)?
[out] ≤ 500 nM

[in] Request body: readout IC50, system recombinant cGAS (aa147-522) (Homo sapiens, UniProt Q8N884), query CN1C(=O)S/C(=C\c2cc(OCc3cnc(N)nc3C3CC3)c(O)cc2Br)C1=O . Return the value.
[out] ≤ 500 nM

[in] Form entry - test system: recombinant cGAS (aa147-522) (Homo sapiens, UniProt Q8N884); read-out: IC50; molecule: COc1cc(/C=c2\sc3ncc(C)n3c2=O)c(Br)cc1O
[out] ≥ 10000 nM

[in] Any idea what IC50 came out for CC(=O)c1cc(/C=C2\SC(=O)N(C)C2=O)c(Br)cc1Oc1cnc(N)s1 on recombinant cGAS (aa147-522) (Homo sapiens, UniProt Q8N884)?
[out] ≥ 10000 nM

[in] Request body: readout IC50, system recombinant cGAS (aa147-522) (Homo sapiens, UniProt Q8N884), query COc1cc(/C=C2\SC(=O)N(C)C2=O)c(Cl)cc1O . Return the value.
[out] ≤ 500 nM

[in] Given the entry CN1C(=O)S/C(=C\c2cc(Oc3ccc(=O)[nH]c3)c(O)cc2Br)C1=O , what IC50 was observed with recombinant cGAS (aa147-522) (Homo sapiens, UniProt Q8N884)?
[out] 500 to 10000 nM

[in] Please tell me: IC50 of CN1C(=O)S/C(=C\c2cc(OCc3cnc[nH]3)c(O)cc2Br)C1=O , system recombinant cGAS (aa147-522) (Homo sapiens, UniProt Q8N884)?
[out] 500 to 10000 nM

[in] Short answer please: IC50, recombinant cGAS (aa147-522) (Homo sapiens, UniProt Q8N884), entry CN1C(=O)S/C(=C\c2cc(OCc3ccn(-c4ccccc4)c(=O)c3)c(O)cc2Br)C1=O
[out] 500 to 10000 nM
